B1: CPEB3 Ribozyme (parent)
chain: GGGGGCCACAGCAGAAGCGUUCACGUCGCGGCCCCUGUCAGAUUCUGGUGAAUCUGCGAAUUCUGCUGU

variants of: B1; test: self-cleavage, relative activity (ratio to wild type); higher = more cleavage; co-transcriptional
MEASURED_PROPERTY: self-cleavage
No unit in the answer, please; the number alone is enough.

Write down self-cleavage measured for item C39G G47C 0.986

Write down self-cleavage measured for item C18U G56A 0.706

Write down self-cleavage measured for item C33G G65U 0.376

Write down self-cleavage measured for item C32U C66U 1

Write down self-cleavage measured for item C39A C66U 0.828

Write down self-cleavage measured for item U55A G58C 0.993

Write down self-cleavage measured for item C12U A16C 0.134

Write down self-cleavage measured for item C6G C24A 0.0804

Write down self-cleavage measured for item C66G U69G 0.923

Write down self-cleavage measured for item C39G U43G 0.448

Write down self-cleavage measured for item G5C G47U 0.289

Write down self-cleavage measured for item G65U C66G 0.814

Write down self-cleavage measured for item G2A A42U 0.0966

Write down self-cleavage measured for item A52C U53A 0.936

Write down self-cleavage measured for item G5A G14A 0.325

Write down self-cleavage measured for item G2A U64C 0.0804

Write down self-cleavage measured for item G17A G31U 0.113

Write down self-cleavage measured for item A52G C66U 0.971

Write down self-cleavage measured for item G25A A51U 0.166

Write down self-cleavage measured for item C18U U46A 0.964

Write down self-cleavage measured for item C12G A52G 0.94

Write down self-cleavage measured for item G19U U55C 0.191

Write down self-cleavage measured for item G25U G48A 0.176

Write down self-cleavage measured for item G17C U49G 0.148

Write down self-cleavage measured for item G11A U36C 0.727

Write down self-cleavage measured for item A16U A42G 0.739

Write down self-cleavage measured for item A15G G65C 0.825

Write down self-cleavage measured for item U21G U61G 0.24

Write down self-cleavage measured for item G50C U55G 0.685

Write down self-cleavage measured for item C24U G41A 0.394

Write down self-cleavage measured for item U43A U69G 1.01

Write down self-cleavage measured for item A42G 0.951

Write down self-cleavage measured for item A42U U64G 0.722

Write down self-cleavage measured for item G19C C32U 0.198

Write down self-cleavage measured for item A15C G48C 0.918

Write down self-cleavage measured for item G1C C32A 0.279

Write down self-cleavage measured for item G14A C24A 0.238

Write down self-cleavage measured for item G4C U67C 0.824

Write down self-cleavage measured for item G25A A40U 0.153

Write down self-cleavage measured for item A15C A60C 0.308

Write down self-cleavage measured for item G25A G68C 0.195

Write down self-cleavage measured for item C32A U49A 0.871
